Each recorded value in this set is attributed to the supplement of paper PMC8371130.

Tested on: HL-1
protocolDetails: relative cell viability (CellTiter-Glo) vs DMSO control (% of DMSO control); higher = more viable cells
appliedConditions: oxygen condition: hypoxia 48 h (1% O2) + reoxygenation 24 h; 40 nM
Counter-ions that a name gives are not always drawn.
// classify: if (relative cell viability < 100) 1 (yes) else 0 (no)

Confirm or reject: relative cell viability of O=C(O)c1cccnc1 lies strictly below 100
0 (no)

Confirm or reject: relative cell viability of CN1CCOC(c2ccccc2)c2ccccc2C1 (configuration not stated) [Nefopam HCl] lies strictly below 100
1 (yes)

Confirm or reject: relative cell viability of C[C@@H](Oc1cc(-c2cnn(C3CCNCC3)c2)cnc1N)c1c(Cl)ccc(F)c1Cl lies strictly below 100
1 (yes)

Confirm or reject: relative cell viability of CC1=NN(c2ccc(C)c(C)c2)C(=O)/C1=N\Nc1cccc(-c2cccc(C(=O)O)c2)c1O lies strictly below 100
0 (no)

Confirm or reject: relative cell viability of CN(Cc1cnc2nc(N)nc(N)c2n1)c1ccc(C(=O)N[C@@H](CCC(=O)O)C(=O)O)cc1 [Abitrexate] lies strictly below 100
1 (yes)

Confirm or reject: relative cell viability of CO[C@H]1C[C@@H]2CC[C@@H](C)[C@@](O)(O2)C(=O)C(=O)N2CCCC[C@H]2C(=O)O[C@H]([C@H](C)C[C@@H]2CC[C@@H](OC(=O)C(C)(CO)CO)[C@H](OC)C2)CC(=O)[C@H](C)/C=C(\C)[C@@H](O)[C@@H](OC)C(=O)[C@H](C)C[C@H](C)/C=C/C=C/C=C/1C lies strictly below 100
1 (yes)
